- System: vonoprazan metabolism (MI formation) in rat liver microsomes
- methodDescription: Inhibition of vonoprazan metabolism (MI formation) in rat liver microsome incubation
- Assay type: in vitro ADME
- conditionSet: rat, rat liver microsomes, pH 7.4, probe vonoprazan (10 µM), metabolite MI measured; RLMs, 10 µM vonoprazan, MI formation
propertyName: IC50 at 30 min (µM)
Give just the numeric value; µM need not be written.

Provide the documented IC50 at 30 min with vonoprazan metabolism (MI formation) in rat liver microsomes as the system for CCOC(=O)C1=C(COCCN)NC(C)=C(C(=O)OC)C1c1ccccc1Cl (stereo not shown) [Amlodipine, amlodipine besylate]
17

---

- methodDescription: Pharmacokinetics of vonoprazan and MI in rats with or without inhibitor pretreatment
- Assay type: in vivo, Sprague-Dawley rats
- conditionSet: male, Sprague-Dawley, rat, plasma, po, 2 mg/kg, Amlodipine group (10 mg/kg amlodipine 7 days), single gavage 2 mg/kg vonoprazan, rat plasma
Listed here: items and their measured Tmax.
Give just the numeric value; h need not be written.

Would you mind telling me what Tmax value was observed for CNCc1cc(-c2ccccc2F)n(S(=O)(=O)c2cccnc2)c1 ?
1.67

Okay, and O=C(O)c1cc(-c2ccccc2F)n(S(=O)(=O)c2cccnc2)c1 ?
1.58
